Assay Target: Gamma-secretase
Method Notes: Inhibition of gamma-secretase in human SH-SY5Y cells co-expressing APP C-terminal fragment SPA4CT assessed as inhibition of amyloid beta 42 production by electrochemiluminescent assay
Format: cell-based
The label MET is reserved for IC50 strictly under 0.2 µM; NOT MET covers values equal to or above it.

- Compound: "Cn1ccnc1C(=O)N1CCC(c2cc(F)ccc2F)(S(=O)(=O)c2ccc(Cl)cc2)CC1"
  Class Label: "MET"
- Compound: "COc1ccc2c(C(=O)N3CCC(c4cc(F)ccc4F)(S(=O)(=O)c4ccc(Cl)cc4)CC3)c[nH]c2c1"
  Class Label: "MET"
- Compound: "O=C(N1CCC(c2cc(F)ccc2F)(S(=O)(=O)c2ccc(Cl)cc2)CC1)C1(C(F)(F)F)CCCC1"
  Class Label: "MET"
- Compound: "O=C(c1cnccc1C(F)(F)F)N1CCC(c2cc(F)ccc2F)(S(=O)(=O)c2ccc(Cl)cc2)CC1"
  Class Label: "MET"
- Compound: "O=C(N1CC[C@](c2cc(F)ccc2F)(S(=O)(=O)c2ccc(Cl)cc2)[C@@H](O)C1)C1(C(F)(F)F)CC1 (single isomer, unassigned; 11c)"
  Class Label: "NOT MET"
- Compound: "O=C(c1cnc(Cl)cc1C(F)(F)F)N1CCC(c2cc(F)ccc2F)(S(=O)(=O)c2ccc(Cl)cc2)CC1"
  Class Label: "NOT MET"
- Compound: "O=C(N1CC[C@](c2cc(F)ccc2F)(S(=O)(=O)c2ccc(Cl)cc2)[C@@H](O)C1)C1(C(F)(F)F)CC1 (racemic)"
  Class Label: "MET"
- Compound: "O=C(c1ncccc1C(F)(F)F)N1CCC(c2cc(F)ccc2F)(S(=O)(=O)c2ccc(Cl)cc2)CC1"
  Class Label: "MET"
- Compound: "COc1ccc2c(C(=O)N3CCC(c4cc(F)ccc4F)(S(=O)(=O)c4ccc(Cl)cc4)CC3)cn(C)c2c1"
  Class Label: "MET"
